Let's look at some binders and their measured EC50.
target: anti-ALFA VHH; test: dose-response curve fit (log(agonist) vs. response, variable slope), FIG. 2; assay format not described; unit from paragraph 98
Sequence (VHH, as listed by the source): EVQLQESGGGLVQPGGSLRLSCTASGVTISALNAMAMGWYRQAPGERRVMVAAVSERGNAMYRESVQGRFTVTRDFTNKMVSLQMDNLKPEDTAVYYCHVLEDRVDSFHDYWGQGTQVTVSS
Bridge positions count the residues as written; N and C are the ends. Ends that are not written are not given here.
Give just the numeric value; nM need not be written.

# count of solved cases: 4
# BINDER, TEST_RESULT
records = [
    ("Ac-SRLEEELRKRLTE-NH2 (lactam 9-13; SMILES CC(=O)N[C@@H](CO)C(=O)N[C@@H](CCCNC(=N)N)C(=O)N[C@@H](CC(C)C)C(=O)N[C@@H](CCC(=O)O)C(=O)N[C@@H](CCC(=O)O)C(=O)N[C@@H](CCC(=O)O)C(=O)N[C@@H](CC(C)C)C(=O)N[C@@H](CCCNC(=N)N)C(=O)N[C@H]1CCCCNC(=O)CC[C@@H](C(N)=O)NC(=O)[C@H]([C@@H](C)O)NC(=O)[C@H](CC(C)C)NC(=O)[C@H](CCCNC(=N)N)NC1=O, Cyclic ALFA tag; also called SD15193) [Ac-Ser-Arg-Leu-Glu-Glu-Glu-Leu-Arg-(cyclo9)Lys-Arg-Leu-Thr-(cyclo13)Glu-NH2]", 6.05),
    ("Ac-SRLEEELKRRLTE-NH2 (lactam 5-8; SMILES CC(=O)N[C@@H](CO)C(=O)N[C@@H](CCCNC(=N)N)C(=O)N[C@@H](CC(C)C)C(=O)N[C@@H](CCC(=O)O)C(=O)N[C@H]1CCC(=O)NCCCC[C@@H](C(=O)N[C@@H](CCCNC(=N)N)C(=O)N[C@@H](CCCNC(=N)N)C(=O)N[C@@H](CC(C)C)C(=O)N[C@H](C(=O)N[C@@H](CCC(=O)O)C(N)=O)[C@@H](C)O)NC(=O)[C@H](CC(C)C)NC(=O)[C@H](CCC(=O)O)NC1=O, Cyclic ALFA tag; also called SD15192) [Ac-Ser-Arg-Leu-Glu-(cyclo5)Glu-Glu-Leu-(cyclo8)Lys-Arg-Arg-Leu-Thr-Glu-NH2]", 5.98),
    ("SRLEEELRKRLTE (lactam 5-9; not fully specified (N-terminus, C-terminus), also called SD15194) [Ac-Ser-Arg-Leu-Glu-(cyclo5)Glu-Glu-Leu-Arg-(cyclo9)Lys-Arg-Leu-Thr-Glu-NH2]", 5.97),
    ("Ac-SRLEDELRKRLTE-NH2 (lactam 5-9; SMILES CC(=O)N[C@@H](CO)C(=O)N[C@@H](CCCNC(=N)N)C(=O)N[C@@H](CC(C)C)C(=O)N[C@@H](CCC(=O)O)C(=O)N[C@H]1CC(=O)NCCCC[C@@H](C(=O)N[C@@H](CCCNC(=N)N)C(=O)N[C@@H](CC(C)C)C(=O)N[C@H](C(=O)N[C@@H](CCC(=O)O)C(N)=O)[C@@H](C)O)NC(=O)[C@H](CCCNC(=N)N)NC(=O)[C@H](CC(C)C)NC(=O)[C@H](CCC(=O)O)NC1=O, Cyclic ALFA tag; also called SD15196) [Ac-Ser-Arg-Leu-Glu-(cyclo5)Asp-Glu-Leu-Arg-(cyclo9)Lys-Arg-Leu-Thr-Glu-NH2]", 377),
]

Please look at the following binder next.
[ask] If you can, please state the reported EC50 value of Ac-SRLEEELRRRLTE-NH2 (Linear ALFA tag; also called SD15197) [Ac-Ser-Arg-Leu-Glu-Glu-Glu-Leu-Arg-Arg-Arg-Leu-Thr-Glu-NH2] .
[reply] 2.6
